Hi there, I'd appreciate the recorded inhibition for every entry that follows.
# Study target: Neuropilin-1 (Homo sapiens) (UniProt O14786)
# Sequence (O14786 whole entry, looked up): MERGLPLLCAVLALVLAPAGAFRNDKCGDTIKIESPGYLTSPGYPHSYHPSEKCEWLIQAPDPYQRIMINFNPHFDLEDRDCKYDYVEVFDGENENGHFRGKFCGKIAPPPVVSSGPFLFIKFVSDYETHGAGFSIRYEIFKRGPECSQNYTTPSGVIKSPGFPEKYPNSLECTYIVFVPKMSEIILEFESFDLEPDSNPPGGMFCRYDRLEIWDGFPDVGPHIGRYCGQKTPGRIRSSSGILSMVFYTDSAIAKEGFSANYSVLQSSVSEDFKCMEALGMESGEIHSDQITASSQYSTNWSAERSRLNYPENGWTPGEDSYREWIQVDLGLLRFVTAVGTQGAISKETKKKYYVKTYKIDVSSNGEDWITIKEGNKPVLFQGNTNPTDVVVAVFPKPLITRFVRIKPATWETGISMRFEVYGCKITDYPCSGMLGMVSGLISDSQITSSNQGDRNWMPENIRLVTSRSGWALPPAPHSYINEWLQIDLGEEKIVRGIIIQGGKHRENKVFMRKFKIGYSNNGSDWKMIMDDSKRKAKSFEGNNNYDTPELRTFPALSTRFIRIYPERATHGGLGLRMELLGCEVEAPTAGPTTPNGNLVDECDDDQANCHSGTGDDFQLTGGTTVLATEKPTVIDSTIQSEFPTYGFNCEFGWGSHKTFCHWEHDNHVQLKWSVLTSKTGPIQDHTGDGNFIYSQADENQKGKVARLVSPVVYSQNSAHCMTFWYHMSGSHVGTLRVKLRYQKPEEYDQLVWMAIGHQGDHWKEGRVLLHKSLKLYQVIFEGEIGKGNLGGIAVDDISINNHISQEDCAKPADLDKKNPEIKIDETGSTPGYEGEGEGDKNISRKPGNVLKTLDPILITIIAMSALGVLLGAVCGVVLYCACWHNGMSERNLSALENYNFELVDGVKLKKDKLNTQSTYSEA
# Experiment: modulators of CendR peptide binding to NRP-1, primary screen, biochemical, fluorescence polarization, uHTS (AID 602438)
# Experimental setup: FAM-RPARPAR peptide binding to NRP-1, fluorescence polarization; at 25 µM; hits give high values
The campaign covered roughly 360,000 compounds. About 3,100 (0.86%) were called active. This excerpt belongs to a sample that is enriched for actives.
Numbers only here, please. The scale is %.

Summary for this compound, CC(C)c1ccc(OCC(=O)N2CCN(C)CC2)c(Br)c1 : inhibition is 13.4

Please fill in: inhibition reported for CN1CCN(C(=O)COc2ccc(C(C)(C)C)cc2Br)CC1 = 10

Kindly note the recorded inhibition for COc1ccccc1C1=NCc2nnc(CSC)n2-c2ccc(Cl)cc21 , which is 10.2

Note to self: inhibition recorded for CCCCCn1c(=O)c(C(=O)Nc2c(C)n(C)n(-c3ccccc3)c2=O)c(O)c2ccccc21 was 3.5

Documented inhibition of Cc1ccc(S(=O)(=O)N(C)c2ccc(C(=O)NCC3(N(C)C)CCCCC3)cc2)cc1 : -2

inhibition reading for CCC(C)(O)C(=O)OC1C(=O)OC2CC3C(C)=CC(=O)C(O)C3(C)C3C4(O)OCC23C1C(C)C4O (stereo not given) : 9.9

Reported inhibition for NCCc1c[nH]c2ccc(O)cc12 was 10.4

# inhibition of COC(=O)[C@@H]1C(OC(=O)c2ccccc2)CC2CCC1N2C (stereo not given in full) = -1.6

// CCN1c2nc3c(C)cccn3c(=O)c2CC2(C(=O)N(C)C(=O)N(C)C2=O)C1C (stereo not given) : inhibition value = 10.7

Cc1ccc(OC(=O)N(C)C[C@@H]2OCc3cnnn3CCCC(=O)N([C@H](C)CO)C[C@@H]2C)cc1 yielded inhibition of 9.5

====

# Study target: Neuropilin-1 (Homo sapiens)
# Experiment: modulators of CendR peptide binding to NRP-1, primary screen, biochemical, fluorescence polarization, uHTS (AID 602438)
# Experimental setup: FAM-RPARPAR peptide binding to NRP-1, fluorescence polarization; at 25 µM; hits give high values
The campaign covered roughly 360,000 compounds. About 3,100 (0.86%) were called active. The list comes from a sample in which actives are over-represented; it also holds close analogues and randomly drawn compounds.
Parameter: inhibition (%)
A number alone suffices; assume %.

Memo: COC(=O)C1=C(c2cccc(OCc3ccccc3)c2)C[C@@H]2CC[C@H]1N2C(=O)NNCc1ccccc1 , reported inhibition: 8.8

// CCC(=NCCc1ccccc1)c1c(O)n(C2CCCCC2)c(=O)[nH]c1=O : inhibition value = 24

The value of inhibition measured for the molecule O=c1[nH]c2ccccc2n1C1CCN(C(c2ccnc3ccccc23)c2nnnn2Cc2ccccc2)CC1 (stereo not drawn) turned out to be 6.4

# inhibition (molecule: COC(=O)C1=C(c2ccccc2)C[C@@H]2CC[C@H]1N2C(=O)N1CCCCC1 ) is 32.5

Given item COC(=O)C1=C(c2ccc(C(C)=O)cc2)C[C@@H]2CC[C@H]1N2C(=O)NCCNC(C)=O , the value recorded as its inhibition is 34.8

inhibition reading for COC(=O)C1=C(c2ccccc2)C[C@@H]2CC[C@H]1N2C(=O)NCc1ccco1 : -16.6

Notebook: O=c1[nH]c2ccccc2n1C1CCN(C(c2ccccc2)c2nnnn2Cc2ccccc2)CC1 (stereo not drawn) , inhibition read as 11.2

The molecule identified as CN(C)P(=S)(Nc1ccccc1)C(Cl)(Cl)Cl (stereo not drawn) registered its inhibition at 7.8

These measurements were taken from PubChem BioAssay AID602438.
